# Tgt: ATX (Homo sapiens, UniProt Q13822)
# Experiment: Amplex Red Lyso-phospholipase D assay, human ATX
# Type: biochemical
# Design: purchased Sino Biological
# Settings: recombinant human ATX 2 nM, LPC 16:0 substrate, Amplex Red; read-out: IC50 hATX
Measurement Name: IC50

Sample records with IC50:
| Compound String | IC50 |
| --- | --- |
| NC(=NOC(=O)c1ccc(-c2cccs2)s1)c1cccc(C(F)(F)F)c1 | > 100 µM |
| O=C(C(=Cc1ccccc1)n1ccnc1)c1ccccc1OCc1ccccc1 | > 100 µM |
| O=S(=O)(Nc1cc(C(F)(F)F)ccc1N1CCc2ccccc2C1)c1cccc2nonc12 | > 100 µM |

## Input Which IC50 is reported with ATX (Homo sapiens, UniProt Q13822) for this entry: Cc1cccc(C)c1NC(=O)CSc1nc2ccccc2c(=O)n1CCc1cccs1 ?
## Output 1.8 µM

## Input Which IC50 is reported with ATX (Homo sapiens, UniProt Q13822) for this entry: Cc1nn(-c2ccccc2)c2nc(OCC(=O)c3ccc(Br)cc3)c(C#N)c(-c3cccnc3)c12 ?
## Output > 100 µM

## Input Which IC50 is reported with ATX (Homo sapiens, UniProt Q13822) for this entry: FC(F)(F)c1ccc2c(c1)nc(SCc1ccccc1)n2CCc1ccccc1 ?
## Output > 100 µM

## Input Which IC50 is reported with ATX (Homo sapiens, UniProt Q13822) for this entry: CC(=O)Oc1ccccc1C(=CC=C(c1ccccc1)c1ccccc1)N1CCOCC1 ?
## Output > 100 µM

## Input Which IC50 is reported with ATX (Homo sapiens, UniProt Q13822) for this entry: Cc1cc(OC(=O)c2c(-c3ccccc3)noc2C)c2cc(F)ccc2n1 ?
## Output > 100 µM

## Input Which IC50 is reported with ATX (Homo sapiens, UniProt Q13822) for this entry: O=C(CN1CCN(C2c3ccccc3-c3ccccc32)CC1)c1ccc2c(c1)OCO2 ?
## Output > 100 µM

## Input Which IC50 is reported with ATX (Homo sapiens, UniProt Q13822) for this entry: N#Cc1ccc(-c2c(NC(=O)NS(=O)(=O)c3ccccc3Cl)oc(-c3ccco3)c2C#N)cc1 ?
## Output > 100 µM

## Input Which IC50 is reported with ATX (Homo sapiens, UniProt Q13822) for this entry: Cc1ccc(S(=O)(=O)CCSc2n[nH]c(=O)n2-c2ccc(OCc3ccccc3)cc2)cc1 ?
## Output > 100 µM

## Input Which IC50 is reported with ATX (Homo sapiens, UniProt Q13822) for this entry: O=C(CSc1nc2cc(Cl)ccc2o1)Nc1cc(C(F)(F)F)cc(C(F)(F)F)c1 ?
## Output > 100 µM

## Input Which IC50 is reported with ATX (Homo sapiens, UniProt Q13822) for this entry: O=C1Nc2ccccc2/C1=C/c1cc2ccccc2n1S(=O)(=O)c1ccccc1 ?
## Output 79 µM
